# Target Entity: SpPex13
# Test Details: SPOT peptide array binding signal intensity (averaged, normalized) (arbitrary units (background-subtracted, floor 0; scale differs between SH3 domains)); higher = stronger binding of the SH3 domain to the peptide
Metric: SPOT peptide array binding signal intensity
Give bare numbers.

Sample answers from the record:
>>> print(df.to_string())
            binder  result_value
0  VSKLRSPNTPRRLRK           5.5
1  RFKRHRLEFPFNESE            15
2  WTQRRGPLVVYAEDN            19
3  NRLRKRLNLPSEISI           7.5
4  APPPPPRRATPEKKP             1
5  QQNRPLPQLPNRNNR           3.5
6  IAPIPMPKPNPTHIS             2
7  RPVPPPPPMRTTTEG           150
8  TKIRRRPQQPLTDFT             1
9  PSTMDFPKLPSFQNS            38

Hi there! I need SPOT peptide array binding signal intensity for each item below, if you can.
1. WRPRIVPILPYITRL
2. DHPKGPPPPPPPDEK
3. NTMKKRPAPPSLPSL

6.5
10
55

Values from the supplement of paper PMC4466140
